# target_entity: UniProtKB P17706
# Sequence (P17706 other isoform, or with tags, fused parts or gaps isoform P17706-2): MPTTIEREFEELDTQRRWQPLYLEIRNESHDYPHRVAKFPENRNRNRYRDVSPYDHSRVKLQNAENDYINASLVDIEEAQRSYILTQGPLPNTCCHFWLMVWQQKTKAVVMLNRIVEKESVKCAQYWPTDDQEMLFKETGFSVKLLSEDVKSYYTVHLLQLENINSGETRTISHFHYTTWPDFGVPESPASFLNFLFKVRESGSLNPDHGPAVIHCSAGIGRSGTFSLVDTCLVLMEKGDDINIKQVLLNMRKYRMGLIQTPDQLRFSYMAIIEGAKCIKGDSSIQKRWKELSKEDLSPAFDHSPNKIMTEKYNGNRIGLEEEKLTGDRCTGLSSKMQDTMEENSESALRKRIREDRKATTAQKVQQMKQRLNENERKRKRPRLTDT
# assay_text: Phosphatase activity assay using DiFMUP as substrate
# Type: biochemical
# experimental_setup: PTPN2 0.15 nM, 10 mM DTT
measured_property: log10(IC50) (log10 of the value in nM)

mol_smiles=Cc1cc(NCc2cc(O)c(N3CC(=O)NS3(=O)=O)c(F)c2)nc(N2CCOCC2)c1 target_entity="UniProtKB P17706" reading=1.30
mol_smiles=COc1cc(NCc2cc(O)c(N3CC(=O)NS3(=O)=O)c(F)c2)ncc1C target_entity="UniProtKB P17706" reading=0.60
mol_smiles=N#Cc1cccc(NCc2cc(O)c(N3CC(=O)NS3(=O)=O)c(F)c2)n1 target_entity="UniProtKB P17706" reading=0.70
mol_smiles=N#Cc1ccnc(NCc2cc(O)c(N3CC(=O)NS3(=O)=O)c(F)c2)c1 target_entity="UniProtKB P17706" reading=2.00
mol_smiles=COc1ccc(OC)c(NCc2cc(O)c(N3CC(=O)NS3(=O)=O)c(F)c2)n1 target_entity="UniProtKB P17706" reading=1.30
mol_smiles=O=C1CN(c2c(O)cc(CNc3ccc(-c4ccccc4)cn3)cc2F)S(=O)(=O)N1 target_entity="UniProtKB P17706" reading=2.98
mol_smiles=COc1cc(C)nc(NCc2cc(O)c(N3CC(=O)NS3(=O)=O)c(F)c2)c1 target_entity="UniProtKB P17706" reading=0.30
mol_smiles=Cc1cccnc1NCc1cc(O)c(N2CC(=O)NS2(=O)=O)c(F)c1 target_entity="UniProtKB P17706" reading=2.66
mol_smiles=O=C1CN(c2c(O)cc(CNc3cc(C4CC4)ccn3)cc2F)S(=O)(=O)N1 target_entity="UniProtKB P17706" reading=0.00

Recorded values, source patent US20240180886A1.
